TARGET_OR_SYSTEM: Penicillin-binding protein 1A (Streptococcus pneumoniae serotype 4 (strain ATCC BAA-334 / TIGR4))
Sequence (Q04707 whole entry): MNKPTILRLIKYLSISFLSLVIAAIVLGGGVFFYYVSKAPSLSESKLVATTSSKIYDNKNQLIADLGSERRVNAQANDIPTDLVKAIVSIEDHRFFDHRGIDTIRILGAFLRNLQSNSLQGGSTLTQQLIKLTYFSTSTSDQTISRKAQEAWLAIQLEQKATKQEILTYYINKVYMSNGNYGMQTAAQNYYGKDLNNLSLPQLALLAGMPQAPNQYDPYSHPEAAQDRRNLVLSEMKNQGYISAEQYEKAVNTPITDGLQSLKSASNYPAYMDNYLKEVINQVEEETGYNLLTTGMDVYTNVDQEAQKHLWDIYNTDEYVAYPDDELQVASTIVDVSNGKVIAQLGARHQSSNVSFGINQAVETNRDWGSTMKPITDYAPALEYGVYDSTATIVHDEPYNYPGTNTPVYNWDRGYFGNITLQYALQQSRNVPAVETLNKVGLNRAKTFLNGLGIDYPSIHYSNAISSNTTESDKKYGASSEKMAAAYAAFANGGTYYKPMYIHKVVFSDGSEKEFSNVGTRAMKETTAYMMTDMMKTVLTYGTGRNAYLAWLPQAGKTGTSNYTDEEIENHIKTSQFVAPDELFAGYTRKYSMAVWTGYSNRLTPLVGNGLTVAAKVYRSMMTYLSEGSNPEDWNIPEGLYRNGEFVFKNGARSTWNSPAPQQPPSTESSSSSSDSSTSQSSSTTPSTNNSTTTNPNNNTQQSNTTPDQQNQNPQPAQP
PROCEDURE_SUMMARY: Displacement of Biocillin FL from Streptococcus pneumoniae 3676 PBP1A
MEASUREMENT_LABEL: IC50 (nM)

{"COMPOUND": "C[C@@H](O)[C@H]1C(=O)N2C(C(=O)O)=C([C@H]3CCCO3)S[C@H]12", "MEASURED_NUMBER": 87.6}
{"COMPOUND": "CC1(C)S[C@@H]2[C@H](NC(=O)[C@H](N)c3ccc(O)cc3)C(=O)N2[C@H]1C(=O)O", "MEASURED_NUMBER": 1150}
{"COMPOUND": "CO/N=C(\\C(=O)N[C@@H]1C(=O)N2C(C(=O)O)=C(COC(N)=O)CS[C@H]12)c1ccco1", "MEASURED_NUMBER": 18.9}
{"COMPOUND": "C[C@@H](O)[C@H]1C(=O)N2C(C(=O)O)=C(SCCNC=N)C[C@H]12 [IMIPENEM ANHYDROUS]", "MEASURED_NUMBER": 838}
{"COMPOUND": "CC1(C)S[C@@H]2[C@H](NC(=O)Cc3ccccc3)C(=O)N2[C@H]1C(=O)O", "MEASURED_NUMBER": 35.9}

----------
TARGET_OR_SYSTEM: Penicillin-binding protein 1A (Streptococcus pneumoniae serotype 4 (strain ATCC BAA-334 / TIGR4), UniProt Q04707)
Sequence (Q04707 whole entry): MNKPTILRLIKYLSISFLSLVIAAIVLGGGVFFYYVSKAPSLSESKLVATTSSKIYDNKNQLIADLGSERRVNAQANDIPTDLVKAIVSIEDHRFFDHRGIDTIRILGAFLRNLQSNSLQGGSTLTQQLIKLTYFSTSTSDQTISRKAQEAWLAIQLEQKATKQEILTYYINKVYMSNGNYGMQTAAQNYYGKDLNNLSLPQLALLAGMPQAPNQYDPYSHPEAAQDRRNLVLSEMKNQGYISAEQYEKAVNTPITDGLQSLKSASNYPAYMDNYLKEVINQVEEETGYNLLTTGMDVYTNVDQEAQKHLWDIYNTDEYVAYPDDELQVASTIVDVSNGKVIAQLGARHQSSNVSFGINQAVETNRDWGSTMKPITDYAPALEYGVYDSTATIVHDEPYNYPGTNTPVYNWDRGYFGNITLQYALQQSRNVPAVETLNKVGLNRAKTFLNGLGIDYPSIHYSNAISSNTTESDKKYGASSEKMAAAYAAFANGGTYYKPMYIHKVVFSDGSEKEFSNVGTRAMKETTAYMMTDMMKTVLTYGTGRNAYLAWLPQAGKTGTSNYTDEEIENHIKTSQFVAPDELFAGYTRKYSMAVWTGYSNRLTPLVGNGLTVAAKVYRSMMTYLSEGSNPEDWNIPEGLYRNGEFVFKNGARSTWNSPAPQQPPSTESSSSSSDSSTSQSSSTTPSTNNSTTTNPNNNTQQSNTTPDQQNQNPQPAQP
PROCEDURE_SUMMARY: Displacement of Biocillin FL from Streptococcus pneumoniae 3243 PBP1A
pIC50: −log10 of the molar value.

{"MOLECULE": "C[C@@H](O)[C@H]1C(=O)N2C(C(=O)O)=C(SCCNC=N)C[C@H]12 [IMIPENEM ANHYDROUS]", "pIC50": 6.22}
{"MOLECULE": "C[C@@H](O)[C@H]1C(=O)N2C(C(=O)O)=C([C@H]3CCCO3)S[C@H]12", "pIC50": 7.85}
{"MOLECULE": "CC1(C)S[C@@H]2[C@H](NC(=O)[C@H](N)c3ccc(O)cc3)C(=O)N2[C@H]1C(=O)O", "pIC50": 6.79}
{"MOLECULE": "CO/N=C(\\C(=O)N[C@@H]1C(=O)N2C(C(=O)O)=C(COC(N)=O)CS[C@H]12)c1ccco1", "pIC50": 7.85}
{"MOLECULE": "CC1(C)S[C@@H]2[C@H](NC(=O)Cc3ccccc3)C(=O)N2[C@H]1C(=O)O", "pIC50": 7.62}

----------
PROCEDURE_SUMMARY: Displacement of Biocillin FL from Streptococcus pneumoniae 3009 PBP1B
MEASUREMENT_LABEL: log10(IC50) (log10 of the value in ng/mL)

{"MOLECULE": "CC1(C)S[C@@H]2[C@H](NC(=O)[C@H](N)c3ccc(O)cc3)C(=O)N2[C@H]1C(=O)O", "log10(IC50)": 1.77}
{"MOLECULE": "CO/N=C(\\C(=O)N[C@@H]1C(=O)N2C(C(=O)O)=C(COC(N)=O)CS[C@H]12)c1ccco1", "log10(IC50)": 1.38}
{"MOLECULE": "C[C@@H](O)[C@H]1C(=O)N2C(C(=O)O)=C(SCCNC=N)C[C@H]12 [IMIPENEM ANHYDROUS]", "log10(IC50)": 0.95}
{"MOLECULE": "CC1(C)S[C@@H]2[C@H](NC(=O)Cc3ccccc3)C(=O)N2[C@H]1C(=O)O", "log10(IC50)": 0.00}
{"MOLECULE": "C[C@@H](O)[C@H]1C(=O)N2C(C(=O)O)=C([C@H]3CCCO3)S[C@H]12", "log10(IC50)": 0.30}

----------
Form field: pIC50 (one value per entry).
TARGET_OR_SYSTEM: Penicillin-binding protein 2B (Streptococcus pneumoniae serotype 4 (strain ATCC BAA-334 / TIGR4))
Sequence (P0A3M5 whole entry): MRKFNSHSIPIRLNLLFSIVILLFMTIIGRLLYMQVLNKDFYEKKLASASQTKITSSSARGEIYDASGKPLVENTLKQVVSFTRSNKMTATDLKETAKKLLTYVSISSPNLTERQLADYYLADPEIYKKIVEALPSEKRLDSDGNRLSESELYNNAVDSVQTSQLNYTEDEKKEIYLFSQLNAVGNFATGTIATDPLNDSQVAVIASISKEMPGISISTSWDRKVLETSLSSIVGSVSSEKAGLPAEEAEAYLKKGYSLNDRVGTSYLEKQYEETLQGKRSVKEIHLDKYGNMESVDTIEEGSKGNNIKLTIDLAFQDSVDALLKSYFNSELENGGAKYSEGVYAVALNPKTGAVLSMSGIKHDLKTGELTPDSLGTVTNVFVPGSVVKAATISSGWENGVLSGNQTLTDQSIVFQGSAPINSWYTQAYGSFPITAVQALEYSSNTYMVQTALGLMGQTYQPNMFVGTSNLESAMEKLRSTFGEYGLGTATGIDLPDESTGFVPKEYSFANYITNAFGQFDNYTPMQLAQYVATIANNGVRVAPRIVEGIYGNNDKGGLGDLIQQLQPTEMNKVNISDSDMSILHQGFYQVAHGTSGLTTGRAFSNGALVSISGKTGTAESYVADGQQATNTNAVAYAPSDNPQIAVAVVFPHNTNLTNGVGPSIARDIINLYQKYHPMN
PROCEDURE_SUMMARY: Displacement of Biocillin FL from Streptococcus pneumoniae 1077 PBP2B
pIC50: −log10 of the molar value.

{"MOLECULE": "CC1(C)S[C@@H]2[C@H](NC(=O)[C@H](N)c3ccc(O)cc3)C(=O)N2[C@H]1C(=O)O [AMOXICILLIN]", "pIC50": 7.09}
{"MOLECULE": "C[C@@H](O)[C@H]1C(=O)N2C(C(=O)O)=C(SCCNC=N)C[C@H]12 [IMIPENEM ANHYDROUS]", "pIC50": 6.81}
{"MOLECULE": "CC1(C)S[C@@H]2[C@H](NC(=O)Cc3ccccc3)C(=O)N2[C@H]1C(=O)O [PENICILLIN G]", "pIC50": 6.96}
